Consider the following molecules and their measured SILAC ratio Ncstn readings.
biological target: AEA-DA lipid probe targets in Neuro2a cells (Mus musculus, UniProt P57716); settings: competitor 25 μM
Sequence (P57716 28-708): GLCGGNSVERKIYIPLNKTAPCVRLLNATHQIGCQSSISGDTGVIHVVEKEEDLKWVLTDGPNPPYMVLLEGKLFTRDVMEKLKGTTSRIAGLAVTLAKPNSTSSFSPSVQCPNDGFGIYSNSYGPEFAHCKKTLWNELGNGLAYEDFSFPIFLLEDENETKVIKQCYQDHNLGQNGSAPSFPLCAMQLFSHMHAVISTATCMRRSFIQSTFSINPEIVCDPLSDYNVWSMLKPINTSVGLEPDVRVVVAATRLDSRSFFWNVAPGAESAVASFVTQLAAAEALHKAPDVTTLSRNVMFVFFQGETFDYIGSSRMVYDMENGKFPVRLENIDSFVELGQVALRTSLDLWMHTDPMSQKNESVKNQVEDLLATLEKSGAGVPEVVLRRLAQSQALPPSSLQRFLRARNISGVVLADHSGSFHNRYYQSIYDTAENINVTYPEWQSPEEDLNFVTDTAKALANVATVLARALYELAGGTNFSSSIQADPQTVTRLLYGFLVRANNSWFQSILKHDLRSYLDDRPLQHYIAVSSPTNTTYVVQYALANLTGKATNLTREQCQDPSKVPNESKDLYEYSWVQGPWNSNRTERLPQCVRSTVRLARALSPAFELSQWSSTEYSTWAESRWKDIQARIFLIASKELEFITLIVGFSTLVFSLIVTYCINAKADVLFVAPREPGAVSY

Use the examples below as a reference point.
O=C(/C=C/c1cccnc1)NCCCCC1CCN(C(=O)c2ccccc2)CC1 [FK-866, reference compound] | 1.1
CN1CCN(C(=O)c2[nH]c3ccc([N+](=O)[O-])cc3c2-c2ccccc2)CC1 | 1.6
C=CCN(C)CCCCCCOc1ccc(C(=O)c2ccc(Br)cc2)c(F)c1 [Ro 48-8071, reference compound] | 1.0

# context switch: different molecule, same SILAC ratio Ncstn
Request: Output measured SILAC ratio Ncstn for this item: CN1CCN(C(=O)c2c(-c3ccccc3)c3cc([N+](=O)[O-])ccc3n2C)CC1
Response: 1.3
